Kindly state A/G for each of the entries shown.
Species: Rattus norvegicus
Assay: Open TG-GATES - Regimen: Daily Repeat
Assay type: toxicity, organism-based, Sprague-Dawley
Design: regimen Daily Repeat, gender Male, age 6 weeks
Conditions: in vivo, po, 0 mg/kg, […], tissue Plasma, route gavage, dose level Control, time 14 day
One number for each entry.

Look up A/G for the entries below, preserving their order.
1. CN(C/C=C/C#CC(C)(C)C)Cc1cccc2ccccc12
2. Nc1ccc(Cc2ccc(N)cc2)cc1
3. CCO

1: 1.4; 2: 0.8; 3: 1.9

###

Organism: Rattus norvegicus
Test: Open TG-GATES - Regimen: Daily Repeat
Format: toxicity, organism-based, Sprague-Dawley
Design: regimen Daily Repeat, gender Male, age 6 weeks
Conditions: in vivo, po, 0 mg/kg, […], tissue Blood, route gavage, dose level Control, time 28 day
measure_name: Fbg (mg/dL)
Give bare numbers, in mg/dL.

In the examples that follow, each entry is paired with its recorded Fbg.
[[record]]
molecule = "CCCCNC(=O)NS(=O)(=O)c1ccc(C)cc1 [TOLBUTAMIDE]"
measure_name = "Fbg"
value_units = "mg/dL"
measured_value = 277

[[record]]
molecule = "O=C(O)c1ccccc1Nc1ccccc1 [FENAMIC ACID]"
measure_name = "Fbg"
value_units = "mg/dL"
measured_value = 296

[[record]]
molecule = "COc1ccc([C@@H]2Sc3ccccc3N(CCN(C)C)C(=O)[C@@H]2OC(C)=O)cc1 [DILTIAZEM]"
measure_name = "Fbg"
value_units = "mg/dL"
measured_value = 302.8

[[record]]
molecule = "NS(=O)(=O)c1cc(C(=O)O)c(NCc2ccco2)cc1Cl [FUROSEMIDE]"
measure_name = "Fbg"
value_units = "mg/dL"
measured_value = 266.6

[[record]]
molecule = "CC(=O)[C@@]1(O)CC[C@H]2[C@@H]3C=C(Cl)C4=CC(=O)CC[C@]4(C)[C@H]3CC[C@@]21C [CHLORMADINONE]"
measure_name = "Fbg"
value_units = "mg/dL"
measured_value = 325

[[record]]
molecule = "CC(S)C(=O)NCC(=O)O (stereo not drawn) [TIOPRONIN]"
measure_name = "Fbg"
value_units = "mg/dL"
measured_value = 305.6

[[record]]
molecule = "Nc1ccc(Cc2ccc(N)cc2)cc1"
measure_name = "Fbg"
value_units = "mg/dL"
measured_value = 284.2

[[record]]
molecule = "CCCCC1C(=O)N(c2ccccc2)N(c2ccccc2)C1=O [PHENYLBUTAZONE]"
measure_name = "Fbg"
value_units = "mg/dL"
measured_value = 233

[[record]]
molecule = "CCO [ALCOHOL]"
measure_name = "Fbg"
value_units = "mg/dL"
measured_value = 215.6

[[record]]
molecule = "O=c1ccc2ccccc2o1 [COUMARIN]"
measure_name = "Fbg"
value_units = "mg/dL"
measured_value = 225


Okay, here is my list. What is Fbg for each of these?
1. CN(C/C=C/C#CC(C)(C)C)Cc1cccc2ccccc12 [TERBINAFINE]
2. CCN(CC)C(=S)SSC(=S)N(CC)CC

230.6
321.4

Recorded Fbg for CN(CCOc1ccc(CC2SC(=O)NC2=O)cc1)c1ccccn1.O=C(O)/C=C\C(=O)O (stereo not drawn) [ROSIGLITAZONE MALEATE] , please?
242.4
